Reported EC50 values for the following molecules.
Assay: Luminescence Cell-Based Dose Response HTS to Identify Activators of Luciferase Translation or Activity in H4 […] Cells. [Related pubchem assays: 1829 (Project Summary), 1814 (Primary HTS)]
Format: functional
The source made the active and inactive calls.
reported_property: EC50

>>> observed_result("Fc1cccc(Cl)c1Cc1noc(/C=C/c2ccccc2)n1")
"70.3 µM (active)"
>>> observed_result("O=C1c2ccccc2C(=O)C12OC2c1ccc(Cl)cc1 (centres undefined)")
"> 120 µM (not active)"
>>> observed_result("O=C(CCSc1ccccc1)N1CCN(c2ccccc2)CC1")
"15.5 µM (active)"
>>> observed_result("Cc1ccc2c(c1)cc1c(O)nncn12")
"9.57 µM (active)"

* * *

Target: Rac GTPase-activating protein 1 (Homo sapiens, UniProt Q9H0H5)
Sequence (Q9H0H5 whole entry): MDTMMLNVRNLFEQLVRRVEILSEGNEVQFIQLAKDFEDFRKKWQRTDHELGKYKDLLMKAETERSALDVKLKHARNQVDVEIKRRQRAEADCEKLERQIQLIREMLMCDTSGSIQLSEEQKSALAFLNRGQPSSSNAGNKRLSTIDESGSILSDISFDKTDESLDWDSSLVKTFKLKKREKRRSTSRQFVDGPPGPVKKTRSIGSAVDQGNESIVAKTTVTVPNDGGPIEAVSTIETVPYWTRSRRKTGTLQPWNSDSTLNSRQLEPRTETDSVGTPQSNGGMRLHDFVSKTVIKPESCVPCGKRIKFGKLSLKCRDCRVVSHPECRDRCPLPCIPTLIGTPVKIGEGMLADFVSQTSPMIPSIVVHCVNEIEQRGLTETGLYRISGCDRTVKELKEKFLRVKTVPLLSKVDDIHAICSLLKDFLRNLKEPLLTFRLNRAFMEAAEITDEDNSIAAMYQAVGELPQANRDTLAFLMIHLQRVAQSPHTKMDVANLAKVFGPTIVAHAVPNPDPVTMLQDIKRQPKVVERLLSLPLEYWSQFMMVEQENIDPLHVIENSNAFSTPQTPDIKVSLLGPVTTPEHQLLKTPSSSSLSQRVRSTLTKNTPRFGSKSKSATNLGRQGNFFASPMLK
Test: blockers of MgcRacGAP-driven Rac1 GTP hydrolysis – biochemical, ADP Hunter fluorescence, primary and confirmatory, confirmation (AID 624330)
Format: functional
Calls of active or inactive are those of the source.
reported_property: IC50

>>> observed_result("COc1cc(/C=N/Nc2nncn2/N=C/c2ccc(O)c(OC)c2)ccc1O")
"43.6 µM (active)"
>>> observed_result("CN(C)c1ccc(/N=c2/sc3ccccc3n2C)cc1")
"18.9 µM (active)"
>>> observed_result("O=C1NC(=O)C(=Cc2ccco2)C(=O)N1")
"141 µM (active)"
>>> observed_result("O=C(CNCc1ccco1)Nc1cccc(S(=O)(=O)N2CCCCC2)c1")
"169 µM (active)"
>>> observed_result("COC(=O)NCC(c1ccc2c(c1)OCO2)N1CCN(c2ccc(OC)cc2)CC1 (stereo not drawn)")
"123 µM (active)"
>>> observed_result("Oc1ccc(C2=Nn3c(nnc3-c3ccco3)SC2)cc1O")
"12.2 µM (active)"
>>> observed_result("C(=N\\N1CCOCC1)/c1nc(-c2ccccc2)n2ccccc12")
"22.3 µM (active)"
>>> observed_result("Nc1ccc(-c2ccc(N)cc2)cc1")
"7.39 µM (active)"
>>> observed_result("Cc1cc(OCCCCCN2CCCC2)ccc1Cl")
"131 µM (active)"
>>> observed_result("C/N=c1\\scc(C)n1/N=C/c1ccc(O)cc1O")
"10.5 µM (active)"
>>> observed_result("CC[n+]1c(/C=C/c2ccc(N(C)C)cc2)ccc2ccccc21")
"46.6 µM (active)"
>>> observed_result("CCN1CCN(c2ccc(N)c(C)c2)CC1")
"48.3 µM (active)"
>>> observed_result("O=c1oc(-c2ccc(O)c(O)c2)cc2cccc(O)c12")
"19.7 µM (active)"
